Test system: A549 cells
Test: cells
Settings: Homo sapiens, A549, read-out: EC50, induction of CHOP protein
experimental_readout: EC50 (µM)
# number only, unit µM dropped from output

Incoming: Please supply the value of reported EC50 for the item Cc1cc2c(C(N)=O)cccc2n1-c1nc2c(c(NCc3ccccc3)n1)COCC2
Outgoing: 1.19
